System: CCRIS mutagenicity, Ames/micronucleus/aberration tests
protocol_text: CCRIS mutagenicity studies
condition_summary: Test System: AMES SALMONELLA TYPHIMURIUM; Strain/Indicator: TA100; Metabolic Activation: NONE; Method: STANDARD PLATE
Calls of active or inactive are those of the source. How the calls were made is not given here.
Pick one: active, inactive

INSERT INTO measurements (compound, class_label) VALUES
  ('CN(C)CCCNc1c2ccccc2nc2ccc([N+](=O)[O-])cc12', 'active'),
  ('C[C@H]1CC[C@@H]2[C@@H](C)[C@H]3C(C[C@H]4[C@@H]5CC=C6C[C@@H](O[C@@H]7O[C@H](CO)[C@H](O)[C@H](O[C@@H]8O[C@H](CO)[C@@H](O)[C@H](O)[C@H]8O)[C@H]7O[C@@H]7O[C@@H](C)[C@H](O)[C@@H](O)[C@H]7O)CC[C@]6(C)C5CC[C@]34C)N2C1 (some centres not stated)', 'inactive');

Name the outcome recorded for CC(C)c1c(C(=O)Nc2ccccc2)c(-c2ccccc2)c(-c2ccc(F)cc2)n1CC[C@@H](O)C[C@@H](O)CC(=O)O in the assay.
inactive

Name the outcome recorded for Nc1cc([N+](=O)[O-])cc([N+](=O)[O-])c1 in the assay.
active

Name the outcome recorded for O=C1c2ccccc2CCc2ccccc21 in the assay.
inactive

Name the outcome recorded for CCN(CC)CCNc1ccc(CO)c2sc3ccccc3c(=O)c12 in the assay.
active

Name the outcome recorded for CC(C)(c1ccc(OP(O)O)cc1)c1ccc(OP(O)O)cc1 in the assay.
inactive

###

Tested on: CCRIS mutagenicity, Ames/micronucleus/aberration tests
protocol_text: CCRIS mutagenicity studies
condition_summary: Test System: AMES SALMONELLA TYPHIMURIUM; Strain/Indicator: TA98; Metabolic Activation: NONE; Method: PREINCUBATION
Calls of active or inactive are those of the source. No rule for the calls is given here.
quantity: mutagenic call

INSERT INTO results (compound, assay_value) VALUES
  ('Nc1ccc(O)c([N+](=O)[O-])c1', 'active; positive'),
  ('Cn1c(N=[N+]=[N-])nc2ncc(-c3ccccc3)cc21', 'active; positive'),
  ('CCCCC/C=C\C/C=C\CCCCCCCC(=O)O', 'inactive; negative'),
  ('NC(=O)Nc1nc2ccccc2[nH]1', 'active; positive'),
  ('CCOc1ccc2ccccc2c1', 'inactive; negative'),
  ('O=C(CCCN1CCC(O)(c2ccc(Cl)cc2)CC1)c1ccc(F)cc1', 'inactive; negative');

Return reported mutagenic call; argument: CC(C)C(=O)OCC(C)(C)C(O)C(C)C (stereo unspecified)
inactive; negative

Return reported mutagenic call; argument: CC(O)CN(CC(C)O)CC(C)O (stereo unspecified) (tested in a mixture with another compound)
inactive; negative

Return reported mutagenic call; argument: CCOc1cccc([N+](=O)[O-])c1
inactive; negative

Return reported mutagenic call; argument: N#CCO
inactive; negative

Return reported mutagenic call; argument: O=C(O)c1cc2ccccc2cc1O
inactive; negative

Return reported mutagenic call; argument: Nc1cccc2c(=O)[nH][nH]c(=O)c12
inactive; negative

Return reported mutagenic call; argument: CCC1(c2ccccc2)C(=O)NC(=O)NC1=O
inactive; negative

Return reported mutagenic call; argument: Cc1cc2ncccc2c2nc(N)n(C)c12
inactive; negative

Return reported mutagenic call; argument: CCC(C)Nc1ccc(NC(C)CC)cc1 (stereo unspecified)
inactive; negative
